Collected pIC50 values appear next to each entry.
test system: PD1-ss+10aa/Gaussia Luciferase; experiment: Dox-Induced PD1-ss-Gluc Assay; format: cell-based; settings: Flp-In 293 T-REx cells, 24 hours with doxycycline; Table 1; read-out: 24 hr Dox Inducible PD1ssGluc 293FRT/TO: Mean IC50
Keep it numeric: pIC50 is minus log10 of the concentration in mol/L.

Here is how some molecules turned out for pIC50.
- MOLECULE: "O=C(Nc1nc(/C=C/c2ncn(C3CC3)c2Cl)cs1)c1cc(C(F)(F)F)cn1Cc1ccnc(F)c1 [Compound A30]"
  SYSTEM TESTED: "PD1-ss+10aa/Gaussia Luciferase"
  VALUE KIND: "pIC50"
  ASSAY VALUE: 8.15
- MOLECULE: "CC(C)n1cnc(/C=C/c2csc(NC(=O)c3cc(Cl)cn3Cc3ccnc(F)c3)n2)c1Cl [Compound A1]"
  SYSTEM TESTED: "PD1-ss+10aa/Gaussia Luciferase"
  VALUE KIND: "pIC50"
  ASSAY VALUE: 7.52
- MOLECULE: "CC(=O)N[C@H]1CC[C@H](/C=C/c2csc(NC(=O)c3cccn3Cc3ccncc3)n2)CC1 [Compound B17]"
  SYSTEM TESTED: "PD1-ss+10aa/Gaussia Luciferase"
  VALUE KIND: "pIC50"
  ASSAY VALUE: 5.29

-- ask Quick one: pIC50 of COc1cc(C(=O)Nc2nc(/C=C/c3ncn(C(C)C)c3Cl)cs2)n(Cc2ccnc(F)c2)c1 [Compound A2] ?
-- reply 7.62

-- ask Quick one: pIC50 of O=C(Nc1nc(/C=C/c2cn(C(F)(F)F)cn2)cs1)c1cc(Cl)cn1Cc1ccnc(F)c1 [Compound A3] ?
-- reply 5.75

-- ask Quick one: pIC50 of N#Cc1ccc(/C=C/c2csc(NC(=O)c3cccn3Cc3ccnc(F)c3)n2)nc1 [Compound B13] ?
-- reply 7.30

-- ask Quick one: pIC50 of [2H]C([2H])(c1ccnc(F)c1)n1cc(OC(F)F)cc1C(=O)Nc1nc(/C=C/c2ncn(C3CC3)c2Cl)cs1 [Compound A16] ?
-- reply 8.22

---

tested on: PD1-ss+10aa/Gaussia Luciferase; assay: Dox-Induced PD1-ss-Gluc Assay; assay type: cell-based; conditions: Flp-In 293 T-REx cells, 24 hours with doxycycline; Table 1; read-out: 24 hr Dox Inducible PD1ssGluc 293FRT/TO: Mean IC50
Collected pIC50 values appear next to each entry.
Keep it numeric: pIC50 is minus log10 of the concentration in mol/L.

Here is how some compounds turned out for pIC50.
- COMPOUND: "O=C(Nc1nc(/C=C/c2ncn(C3CC3)c2Cl)cs1)c1cc(SC(F)(F)F)cn1Cc1ccnc(F)c1 [Compound A31]"
  ASSAY VALUE: 8.40
- COMPOUND: "O=C(Nc1nc(/C=C/c2ncn(C3CC3)c2Cl)cs1)c1cc(OC(F)F)cn1Cc1ccnc(F)c1 [Compound A15]"
  ASSAY VALUE: 8.22
- COMPOUND: "[2H]C([2H])([2H])Oc1cc(C(=O)Nc2nc(/C=C/c3ncn(C4CC4)c3Cl)cs2)n(Cc2ccnc(F)c2F)c1 [Compound A22]"
  ASSAY VALUE: 7.47
- COMPOUND: "O=C(Nc1nc(/C=C/c2ncn(C3CC3)c2Cl)cs1)c1cc(C(F)F)cn1Cc1ccnc(F)c1 [Compound A29]"
  ASSAY VALUE: 7.32

-- ask Quick one: pIC50 of O=C(Nc1nc(/C=C/C2CCC(F)(F)CC2)cs1)c1cccn1Cc1ccnc(F)c1 [Compound B29] ?
-- reply 6.95

-- ask Quick one: pIC50 of O=C(Nc1nc(/C=C/c2ncn(C3CC3)c2Cl)cs1)c1cc(OCF)cn1Cc1ccnc(F)c1 [Compound A19] ?
-- reply 8.00

---

assay: Liver Microsome Stability Assay, rat; format: in vitro ADME; conditions: rat liver microsomes 1.0 mg/mL, 1.0 uM compound, 37° C., 1 mM NADPH
Collected Liver Microsome Stability (Multiple Species): Rat - % Remaining after 30 min w/ NADPH (%) values appear next to each entry.
Reply numerically in %, unit not repeated.

- COMPOUND STRING: "COc1cc(C(=O)Nc2nc(/C=C/c3ncn(C(C)C)c3Cl)c(Cl)s2)n(Cc2ccnc(F)c2)c1"
  ASSAY VALUE: 76
- COMPOUND STRING: "CC(C)n1cnc(/C=C/c2csc(NC(=O)c3cc(Cl)cn3Cc3ccnc(F)c3)n2)c1C(F)(F)F"
  ASSAY VALUE: 77
- COMPOUND STRING: "COc1cc(C(=O)Nc2nc(/C(F)=C/c3cn(C(C)C)cn3)cs2)n(Cc2ccnc(F)c2)c1"
  ASSAY VALUE: 66

-- ask Quick one: Liver Microsome Stability (Multiple Species): Rat - % Remaining after 30 min w/ NADPH (%) of CC(C)n1cnc(/C=C/c2csc(NC(=O)c3cccn3Cc3ccnc(F)c3)n2)c1C#N ?
-- reply 33

---

test system: PD1-ss+10aa/Gaussia Luciferase; experiment: Dox-Induced PD1-ss-Gluc Assay; type: cell-based; details: Flp-In 293 T-REx cells, 24 hours with doxycycline; Table 1; read-out: 24 hr Dox Inducible PD1ssGluc 293FRT/TO: Mean IC50
Collected IC50 values appear next to each entry.
Reply numerically in µM, unit not repeated.

Here is how some compounds turned out for IC50.
- COMPOUND: "CC(C)n1cnc(/C=C/c2csc(NC(=O)c3cc(OC(F)F)cn3Cc3ccnc(F)c3)n2)c1Cl [Compound A7]"
  VALUE KIND: "IC50"
  READING UNIT: "µM"
  ASSAY VALUE: 0.014
- COMPOUND: "CC(C)n1cnc(/C=C/c2csc(NC(=O)c3cccn3Cc3ccnc(F)c3)n2)c1C#N [Compound B20]"
  VALUE KIND: "IC50"
  READING UNIT: "µM"
  ASSAY VALUE: 0.009

-- ask Quick one: IC50 of N#Cc1c(/C=C/c2csc(NC(=O)c3cc(OC(F)F)cn3Cc3ccnc(F)c3)n2)ncn1C1CC1 [Compound A27] ?
-- reply 0.009

-- ask Quick one: IC50 of O=C(Nc1nc(/C=C/c2cccc(F)c2)cs1)c1cccn1Cc1ccnc(F)c1 [Compound B28] ?
-- reply 0.172

-- ask Quick one: IC50 of O=C(Nc1nc(/C=C/c2ccc3occc3c2)cs1)c1cccn1Cc1ccnc(F)c1 [Compound B27] ?
-- reply 0.144

-- ask Quick one: IC50 of CN[C@H]1CC[C@H](/C=C/c2csc(NC(=O)c3cccn3Cc3ccncc3)n2)CC1 [Compound B12] ?
-- reply 17.1

-- ask Quick one: IC50 of N[C@H]1CC[C@H](/C=C/c2csc(NC(=O)c3cccn3Cc3ccncc3)n2)CC1 [Compound B18] ?
-- reply 11.3

-- ask Quick one: IC50 of CC(=O)N[C@H]1CC[C@@H](/C=C/c2csc(NC(=O)c3cccn3Cc3ccncc3)n2)CC1 [Compound B15] ?
-- reply 11.9

---

Collected 24 hr Dox Inducible IL2FLGluc 293FRT/TO: IL2/PD1 values appear next to each entry.
system: IL-2-FL/Gaussia Luciferase; test: Dox Inducible IL2-FL-Gluc Assay; assay type: cell-based; conditions: ratio of IC50s IL2/PD1; Table 3
Form rule: numeric answer, no unit written next to it.

- COMPOUND STRING: "O=C(Nc1nc(/C=C/C2CCCC2)cs1)c1cccn1Cc1ccnc(F)c1"
  ASSAY VALUE: 6
- COMPOUND STRING: "C/C(=C\\c1ccc(C)c(F)n1)c1csc(NC(=O)c2cccn2Cc2ccnc(F)c2)n1"
  ASSAY VALUE: 17
- COMPOUND STRING: "O=C(Nc1nc(/C=C/c2ccc(OC3CC3)cc2F)cs1)c1cccn1Cc1ccnc(F)c1"
  ASSAY VALUE: 9
- COMPOUND STRING: "O=C(Nc1nc(/C=C/[C@H]2CC[C@H](C(F)(F)F)CC2)cs1)c1cccn1Cc1ccncc1"
  ASSAY VALUE: 6
- COMPOUND STRING: "O=C(Nc1nc(/C=C/c2ncn(C3CC3)c2Cl)cs1)c1cc(Cl)cn1Cc1ccnc(F)c1"
  ASSAY VALUE: 150

-- ask Quick one: 24 hr Dox Inducible IL2FLGluc 293FRT/TO: IL2/PD1 of O=C(Nc1nc(/C=C/c2ccc(Cl)cn2)cs1)c1cccn1Cc1ccnc(F)c1 ?
-- reply 69

-- ask Quick one: 24 hr Dox Inducible IL2FLGluc 293FRT/TO: IL2/PD1 of O=C(Nc1nc(/C=C/c2ccc(C(F)(F)F)cn2)cs1)c1cccn1Cc1ccnc(F)c1 ?
-- reply 70

---

experiment: Liver Microsome Stability Assay, rat; assay type: in vitro ADME; conditions: rat liver microsomes 1.0 mg/mL, 1.0 uM compound, 37° C., 1 mM NADPH
VALUE KIND: Liver Microsome Stability (Multiple Species): Rat - % Remaining after 30 min w/ NADPH (%)
Reply numerically in %, unit not repeated.

Here is how some compounds turned out for Liver Microsome Stability (Multiple Species): Rat - % Remaining after 30 min w/ NADPH (%).
- COMPOUND STRING: "COc1cc(C(=O)Nc2nc(/C=C/c3ncn(C4CC4)c3Cl)cs2)n(Cc2ccnc(F)c2)c1"
  ASSAY VALUE: 62
- COMPOUND STRING: "N#Cc1c(/C=C/c2csc(NC(=O)c3cc(Cl)cn3Cc3ccnc(F)c3)n2)ncn1C1CC1"
  ASSAY VALUE: 2
- COMPOUND STRING: "O=C(Nc1nc(/C=C/c2ncn(C3CC3)c2Cl)cs1)c1cc(Cl)cn1Cc1ccnc(F)c1"
  ASSAY VALUE: 17
- COMPOUND STRING: "O=C(Nc1nc(/C=C/c2ncoc2C(F)(F)F)cs1)c1cc(Cl)cn1Cc1ccnc(F)c1"
  ASSAY VALUE: 47
- COMPOUND STRING: "O=C(Nc1nc(/C=C/c2cccc(F)c2)cs1)c1cccn1Cc1ccnc(F)c1"
  ASSAY VALUE: 39
- COMPOUND STRING: "O=C1CCn2cc(/C=C/c3csc(NC(=O)c4cccn4Cc4ccnc(F)c4)n3)nc2N1"
  ASSAY VALUE: 19

-- ask Quick one: Liver Microsome Stability (Multiple Species): Rat - % Remaining after 30 min w/ NADPH (%) of O=C(Nc1nc(/C=C/c2ncn(C3CC3)c2Cl)cs1)c1cc(OC(F)F)cn1Cc1ccnc(F)c1 ?
-- reply 55
